- Method summary: protein stability index of a GFP-peptide fusion (GPS, HEK-293T) (PSI 1-6); higher = more stable;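 note: 24-mer peptide tiles fused after GFP, lentivirally expressed, FACS-sorted into six equal bins by GFP/DsRed ratio, decoded by Illumina sequencing, PSI is the read-weighted mean bin number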
- Conditions used: treatment: MLN4924 1 uM, 8 h; c terminus: a fixed tail appended
Output True for protein stability index not less than 3; output False otherwise.

Solved cases below.
[[record]]
primary_sequence = "YSCQSKEILRYMKEFTLLLSAANV [P2RY14]"
category_label = "False"

[[record]]
primary_sequence = "GGYGSSFGGVDGLLAGGEKATMQN [KRT17]"
category_label = "True"

[[record]]
primary_sequence = "DIDVQLSSELTDSLRTLKPEGNIL [NOP53]"
category_label = "True"


Decide: protein stability index of IQFKKHEEEGIETQYFAELLMTSG [CNOT7] >= 3?
False

Decide: protein stability index of LESRFQSKSGYLRYSCESRIRSYL [DFFB] >= 3?
False

Decide: protein stability index of PELSYRVCVGSDVTSIHKYMVRRY [MYORG] >= 3?
False

Decide: protein stability index of MLERIKHEKTVDIYGHVTLMRAQR [PTPRD] >= 3?
False
